# Test system: UO-31
# Assay remarks: NCI tumour cell line growth inhibition, 48 h
The source made the active and inactive calls. Rule as the data show it: active = GI50 up to about 1.1 µM and inactive = higher.
Parameter: GI50. Scope: all listed entries.

Cc1cc(N(CCC#N)CCC#N)ccc1/C=C1\N=C(c2cc([N+](=O)[O-])ccc2Cl)N(NC(=O)c2ccc(/N=C\c3ccc(N(CCC#N)S(C)(=O)=O)cc3C)cc2)C1=O
> 100 µM (inactive)
c1ccc2c(c1)OC(N1CCCC1)c1cnc(N3CCOCC3)nc1-2 (stereo not given)
19.3 µM (inactive)
CC1=C(C)SC(=C2Sc3[n-]c(=O)[nH]c(=O)c3S2)S1.CCCC[N+](CCCC)(CCCC)CCCC
> 100 µM (inactive)
COc1cc2ccnc3c2c(c1OC)CC1CC(O)C(OC)CC31 (stereo not given)
20.9 µM (inactive)
CC(C)(C)OC(=O)NCCNC(=O)OCc1ccccc1
> 100 µM (inactive)
CCSC1=N/C(=C\c2ccco2)C(Cl)=N1
> 100 µM (inactive)
O=P(O)(O)CC1OC(CO)C(O)C1O (stereo not given)
> 100 µM (inactive)
Cc1c[nH]c(C(=O)O)c1-c1cccn1-c1ccc(Cl)cc1[N+](=O)[O-]
45.9 µM (inactive)

Notebook: Cc1csc(CCC(N)C(=O)O)n1 (stereo not given) , GI50 read as > 100 µM (inactive)

Notebook: "O=C1C(Br)=C(Br)C(=O)c2ccc(=O)ccc21" , GI50 read as 17.6 µM (inactive)

* * *

Parameter: GI50. Scope: all listed entries.
# System: SNB-75
# Assay remarks: NCI tumour cell line growth inhibition, 48 h
Active and inactive are the calls of the source. Cut-off read from the data, not from the text of the source: active = GI50 up to about 1.1 µM and inactive = higher.

C=C(CCOC)CCC1CCCCC/C1=N\N(C)C (configuration not stated)
> 100 µM (inactive)
CN(C)NC(=O)/C(=C/c1ccc(Cl)cc1)NC(=O)c1ccccc1
78 µM (inactive)
c1ccc2c(c1)nnn2CNc1ccc(N2CCCCC2)cc1
> 100 µM (inactive)

Notebook: "Cc1cc(/N=C/c2c(CO)cnc(C)c2O)c(/N=C/c2c(CO)cnc(C)c2O)cc1C.[Zn+2]" , GI50 read as > 100 µM (inactive)

Notebook: "C=CC1(c2ccc3ccccc3c2)OCC(CC)(CC)CO1" , GI50 read as 47.6 µM (inactive)

Notebook: Clc1cc(Cl)cc(C2SCc3nc4ccccc4n32)c1 (configuration not stated) , GI50 read as 43.4 µM (inactive)

Notebook: "Cc1cccc(-c2nc3ccc([N+](=O)[O-])cc3c(=O)o2)c1" , GI50 read as > 100 µM (inactive)

Notebook: C[N+](C)(C)c1ncnc2c1ncn2C1CC(O)C(CO)O1 (configuration not stated) , GI50 read as > 100 µM (inactive)

Notebook: "Nn1c(S)nnc1COc1cccc(OCc2nnc(S)n2N)c1" , GI50 read as > 100 µM (inactive)

Notebook: "CC1=NC(=O)CNN1C1=NNC2(C(=O)N1)c1ccccc1-c1ccccc12" , GI50 read as > 100 µM (inactive)

Notebook: O=C1Nc2ccccc2C1S(=O)(=O)c1ccccc1 (configuration not stated) , GI50 read as > 100 µM (inactive)

Notebook: "CCNC(=S)N/N=C/c1ccccn1" , GI50 read as 62.2 µM (inactive)

* * *

# Test system: HT-29
# Assay remarks: NCI tumour cell line growth inhibition, 48 h
Calls of active or inactive are those of the source. Cut-off read from the data, not from the text of the source: active = GI50 up to about 1.1 µM and inactive = higher.
Attribute measured: GI50

CCCCCCCCOC1C(O)C(O)C(O)C(O)C12CO2 (configuration not stated)
49.5 µM (inactive)

Could you now look at the following compound, please?
Notebook: "CCOP(=O)(OCC)/C(C#N)=C\c1cccc2ccccc12" , GI50 read as > 66.1 µM (inactive)

* * *

# System: MDA-MB-435
# Assay remarks: NCI tumour cell line growth inhibition, 48 h
Calls of active or inactive are those of the source. Rule as the data show it: active = GI50 up to about 1.1 µM and inactive = higher.
Write down one outcome, taken from active, inactive

**Query** Identify the outcome logged in this assay for the molecule shown: O=C1O[C@H]2C3C4CCC(C4[C@@H]2I)[C@H]13 (some centres not stated)
**Result** inactive

**Query** Identify the outcome logged in this assay for the molecule shown: "NS(=O)(=O)c1cc2c(cc1Cl)N=C(CCC(=O)O)NS2(=O)=O"
**Result** inactive

**Query** Identify the outcome logged in this assay for the molecule shown: "CCOC(=O)c1ccc(Nc2nc3ccccc3nc2C(=O)OCC)cc1"
**Result** inactive

**Query** Identify the outcome logged in this assay for the molecule shown: O=C1NC(c2cccc3ccccc23)Nc2ccccc21 (configuration not stated)
**Result** active

**Query** Identify the outcome logged in this assay for the molecule shown: "O=C(O)C(=C\c1ccc2c(c1)OCO2)/C(=C/c1ccc2c(c1)OCO2)C(=O)O"
**Result** inactive

**Query** Identify the outcome logged in this assay for the molecule shown: CN(C)CC1CCC/C(=C\c2ccc(OC(=O)c3ccc(Cl)cc3)cc2)C1=O (configuration not stated)
**Result** inactive

**Query** Identify the outcome logged in this assay for the molecule shown: "CCOP(=O)(OCC)/C(C#N)=C\c1cccc2ccccc12"
**Result** inactive

**Query** Identify the outcome logged in this assay for the molecule shown: "COc1ccc(/C=C/c2cnc3ccccc3n2)cc1OC"
**Result** inactive

**Query** Identify the outcome logged in this assay for the molecule shown: "Nn1c(S)nnc1COc1cccc(OCc2nnc(S)n2N)c1"
**Result** inactive

**Query** Identify the outcome logged in this assay for the molecule shown: "COc1ccc2c(c1)-c1oc3ccccc3c(=O)c1CO2"
**Result** inactive

**Query** Identify the outcome logged in this assay for the molecule shown: "COc1cccc(/C=C2/S/C(=N/Nc3nc(C)c(C(C)=O)s3)NC2=O)c1O"
**Result** inactive

**Query** Identify the outcome logged in this assay for the molecule shown: "N#CCCN(CCCCN(CCC#N)C(=O)Nc1ccccc1)C(=O)Nc1ccccc1"
**Result** inactive

**Query** Identify the outcome logged in this assay for the molecule shown: "Nc1nc(-c2ccc3ccccc3c2)cc(-c2cc(-c3ccc4ccccc4c3)nc(N)n2)n1"
**Result** inactive

**Query** Identify the outcome logged in this assay for the molecule shown: "CC1=NC(=O)CNN1C1=NNC2(C(=O)N1)c1ccccc1-c1ccccc12"
**Result** inactive

**Query** Identify the outcome logged in this assay for the molecule shown: CC1OC1C(=O)P(=O)(O)O (configuration not stated)
**Result** inactive

* * *

# Tested on: Hs-578T
# Assay remarks: NCI tumour cell line growth inhibition, 48 h
The source made the active and inactive calls. Rule as the data show it: active = GI50 up to about 1.1 µM and inactive = higher.
Attribute measured: GI50

See these solved cases before continuing.
O=C1c2ccccc2C2(c3ccc(Cl)cc3)N[C@H]3CCCC[C@@H]3N12 (some centres not stated)
59.2 µM (inactive)
COc1cc(CNc2ccc3nc4n(c(=O)c3c2)CCCCC4)cc(OC)c1OC
51.9 µM (inactive)
Nc1nc(SCc2ccccc2[N+](=O)[O-])c2[nH]cnc2n1
1.93 µM (inactive)
Cc1oc2c(Cl)cc(O)c(Cl)c2c2cccc1-2
34.8 µM (inactive)
O=c1oc(-c2ccc(O)c(O)c2)cc2cccc(O)c12 [THUNBERGINOL A]
21.2 µM (inactive)
Clc1cccc(/C=c2\nc(-c3ccccc3)n3c2nc2ccccc23)c1
98.6 µM (inactive)

Notebook: "CS/C(=N\C#N)S/C=C/C(=O)c1ccc(Cl)cc1" , GI50 read as 32.7 µM (inactive)

* * *

# Test system: HOP-92
# Assay remarks: NCI tumour cell line growth inhibition, 48 h
Activity calls are given as the source filed them. Cut-off read from the data, not from the text of the source: active = GI50 up to about 1.1 µM and inactive = higher.
Write down one outcome, taken from T = active, F = inactive

These recorded examples may help you get a feel for the data.
CC(=O)c1[nH]c(Nc2ccc(C)cc2)c(C(=S)Nc2ccccc2)c1N
F
Clc1ccc(OC2CCO2)cc1Cl (stereo unspecified)
F
COc1ccc2c(c1)OC[C@@H]1c3cc(O)c(OCc4ccccc4)cc3O[C@H]21
F
OC(c1ccc2c(c1)OCO2)c1ccc2c(c1)OCO2
F
CCOC(=O)/C(C#N)=C1/Sc2c(ncn(/N=C/c3ccc(OC)cc3)c2=O)N1c1ccccc1
F
COc1ccc(CC2COc3cc(O)cc(O)c3C2=O)cc1O (stereo unspecified)
F

Attention now shifts to the item below.
**Query** Identify the outcome logged in this assay for the compound shown: "COC(=O)C1=C(C(=O)OC)SC(=C2S[C@@H]3[C@@H]4C[C@H]([C@@H]3S2)[C@H]2C(=O)OC(=O)[C@@H]42)S1"
**Result** F

* * *

# System: SK-OV-3
# Assay remarks: NCI tumour cell line growth inhibition, 48 h
Active and inactive are the calls of the source. No stated cut-off is given here; in the data, active = GI50 up to about 1.1 µM and inactive = higher.
Write down one outcome, taken from active, inactive

These recorded examples may help you get a feel for the data.
CC(C)N/C(=N\C#N)NS(=O)(=O)c1cnccc1Nc1ccc(Cl)cc1
inactive
CC(C)(C)OC(=O)N1CCC2(CC1)C(=O)NCN2c1ccccc1
inactive
ClC(/N=N/c1ccccc1)=N/Nc1ccccc1
inactive

**Query** Identify the outcome logged in this assay for the compound shown: Cc1cc2nnn(C3CCCO3)c2cc1C (stereo not drawn)
**Result** inactive

**Query** Identify the outcome logged in this assay for the compound shown: "CCOC(=O)CC[C@H](NC(=O)[C@H](N)Cc1ccc(N(CCCl)CCCl)cc1)C(=O)OCC"
**Result** inactive

**Query** Identify the outcome logged in this assay for the compound shown: CC(C)c1cc(C(C)C)c(P2(=O)CC3C(Cl)(Cl)C3(C)C2)c(C(C)C)c1 (stereo not drawn)
**Result** inactive

**Query** Identify the outcome logged in this assay for the compound shown: "CN(C)NC(=O)/C(=C/c1ccc(Cl)cc1)NC(=O)c1ccccc1"
**Result** inactive

**Query** Identify the outcome logged in this assay for the compound shown: COC(=O)C1CCC(=O)C(Sc2ccccc2)C1 (stereo not drawn)
**Result** inactive

**Query** Identify the outcome logged in this assay for the compound shown: Cc1ccc(C2(O)c3ccccc3C(=O)N(C)C2(O)c2ccc(C)cc2)cc1 (stereo not drawn)
**Result** inactive

**Query** Identify the outcome logged in this assay for the compound shown: O=C1NC(c2cccc3ccccc23)Nc2ccccc21 (stereo not drawn)
**Result** active

**Query** Identify the outcome logged in this assay for the compound shown: CC(=O)OCC1OC(n2c(=O)[nH]c(=O)c3nn[nH]c32)C(OC(C)=O)C(OC(C)=O)C1OC(C)=O (stereo not drawn)
**Result** inactive

**Query** Identify the outcome logged in this assay for the compound shown: O=C1c2ccccc2C2(c3ccc(Cl)cc3)N[C@H]3CCCC[C@@H]3N12 (stereo partly drawn)
**Result** inactive

**Query** Identify the outcome logged in this assay for the compound shown: "COc1ccc(/C=C/C(=O)c2sc(N)nc2C)cc1"
**Result** inactive

**Query** Identify the outcome logged in this assay for the compound shown: "N#CNC(=N)Nc1ccc(Cl)cc1"
**Result** inactive

**Query** Identify the outcome logged in this assay for the compound shown: "O=C1OC(c2ccccc2)=N/C1=C\c1ccccc1"
**Result** inactive

**Query** Identify the outcome logged in this assay for the compound shown: COC(=O)c1ccccc1C1CN=NC12Cc1c(C)cccc1C2=O (stereo not drawn)
**Result** inactive

**Query** Identify the outcome logged in this assay for the compound shown: "Cc1c2cc[n+](C)cc2c(C)c2c1[nH]c1ccccc12"
**Result** inactive

**Query** Identify the outcome logged in this assay for the compound shown: "C/C(=N/OC(=O)c1cccc2c(=O)c3ccccc3[nH]c12)[C@H]1CC[C@H]2[C@@H]3CCC4=C/C(=N/OC(=O)c5cccc6c(=O)c7ccccc7[nH]c56)CC[C@]4(C)[C@H]3CC[C@]12C"
**Result** inactive

**Query** Identify the outcome logged in this assay for the compound shown: "O=C1c2ccccc2C(=O)c2[nH]c(=O)c(/C=N/Nc3ccc([N+](=O)[O-])cc3)nc21"
**Result** inactive

**Query** Identify the outcome logged in this assay for the compound shown: "CN(C)CC(CO)(CN(C)C)CN(C)C"
**Result** inactive

**Query** Identify the outcome logged in this assay for the compound shown: "CCOC(=O)c1ccc(Nc2nc3ccccc3nc2C(=O)OCC)cc1"
**Result** inactive

**Query** Identify the outcome logged in this assay for the compound shown: "CCOC(=O)c1ccc(C(=O)OCC)n1-c1cc2cc(c1)CSCc1cc(cc(-n3c(C(=O)OCC)ccc3C(=O)OCC)c1)CSC2"
**Result** inactive

**Query** Identify the outcome logged in this assay for the compound shown: "CCOP(=O)(OCC)/C(C#N)=C\c1cccc2ccccc12"
**Result** inactive

**Query** Identify the outcome logged in this assay for the compound shown: "Clc1ccc(CCn2ccc3ccccc32)c(Cl)c1"
**Result** inactive

**Query** Identify the outcome logged in this assay for the compound shown: Cc1csc(CCC(N)C(=O)O)n1 (stereo not drawn)
**Result** inactive

**Query** Identify the outcome logged in this assay for the compound shown: "C=COC(=O)N[C@H]1CCc2cc(OC)c(OC)c(OC)c2-c2ccc(SC)c(=O)cc21"
**Result** active
